Task for the reader: assign each of the following compounds its reported Biodistribution Muscle.
# System: LNCaP tumor xenograft-bearing CB17-SCID mice
# Assay Summary: Biodistribution in LNCaP tumor xenograft-bearing CB17-SCID mice
# Run Conditions: 24 h p.i.
Answers are plain numbers, in % ID/g.

{"Compound": "CCCCCC[C@H](NC(=O)CC[C@H](NC(=O)N[C@@H](CCC(=O)N[C@H](CCCNC(=O)CCC(=O)NCCCC[C@@H](NC(=O)[C@@H](CNC(=O)c1ccc([Si](F)(C(C)(C)C)C(C)(C)C)cc1)NC(=O)CN1CCN(CC(=O)[O-])CCN(CC(=O)[O-])CCN(CC(=O)[O-])CC1)C(=O)O)C(=O)O)C(=O)O)C(=O)O)C(=O)O.[177Lu+3] [[^177Lu]Lu-6, [^177Lu]Lu-Proinhibitor II]", "Biodistribution Muscle (% ID/g)": 0.02}

Kindly consider the entry below.
Bench note: what Biodistribution Muscle did CC(C)(C)[Si](F)(c1ccc(C(=O)NCC(NC(=O)CN2CCN(CC(=O)[O-])CCN(CC(=O)[O-])CCN(CC(=O)[O-])CC2)C(=O)NC(CCCCNC(=O)CCC(=O)NCCCC(NC(=O)CCC(NC(=O)NC(CCc2nnn[nH]2)C(=O)O)C(=O)O)C(=O)O)C(=O)O)cc1)C(C)(C)C.[177Lu+3] (centres unmarked) [[^177Lu]Lu-11, [^177Lu]Lu-Tetrazole Derivative 11] show? 0.02

----------
# System: LNCaP tumor xenograft-bearing CB17-SCID mice
# Assay Summary: Biodistribution in LNCaP tumor xenograft-bearing CB17-SCID mice
# Run Conditions: 24 h p.i.
Task for the reader: assign each of the following molecules its reported Biodistribution Parotid gland.
Numbers only, in % ID/g.

Items follow; give Biodistribution Parotid gland for each.
1. CC(C)(C)[Si](F)(c1ccc(C(=O)NC[C@@H](NC(=O)CN2CCN(CC(=O)[O-])CCN(CC(=O)[O-])CCN(CC(=O)[O-])CC2)C(=O)N[C@H](CCCCNC(=O)CCC(=O)NCCC[C@@H](NC(=O)CC[C@H](NC(=O)O[C@@H](CCC(=O)O)C(=O)O)C(=O)O)C(=O)O)C(=O)O)cc1)C(C)(C)C.[177Lu+3] [[^177Lu]Lu-3, [^177Lu]Lu-Carbamate I]
2. CSCC[C@H](NC(=O)CC[C@H](NC(=O)N[C@@H](CCC(=O)N[C@H](CCCNC(=O)CCC(=O)NCCCC[C@@H](NC(=O)[C@@H](CNC(=O)c1ccc([Si](F)(C(C)(C)C)C(C)(C)C)cc1)NC(=O)CN1CCN(CC(=O)[O-])CCN(CC(=O)[O-])CCN(CC(=O)[O-])CC1)C(=O)O)C(=O)O)C(=O)O)C(=O)O)C(=O)O.[177Lu+3] [[^177Lu]Lu-5, [^177Lu]Lu-Proinhibitor I]
3. CC(C)(C)[Si](F)(c1ccc(C(=O)NCC(NC(=O)CN2CCN(CC(=O)[O-])CCN(CC(=O)[O-])CCN(CC(=O)[O-])CC2)C(=O)NC(CCCCNC(=O)CCC(=O)NCCCC(NC(=O)CCC(NC(=O)NC(CCc2nnn[nH]2)C(=O)O)C(=O)O)C(=O)O)C(=O)O)cc1)C(C)(C)C.[177Lu+3] (centres unmarked) [[^177Lu]Lu-11, [^177Lu]Lu-Tetrazole Derivative 11]
4. CCCCCC[C@H](NC(=O)[C@H](CCC(=O)O)NC(=O)N[C@@H](CCC(=O)N[C@H](CCCNC(=O)CCC(=O)NCCCC[C@@H](NC(=O)[C@@H](CNC(=O)c1ccc([Si](F)(C(C)(C)C)C(C)(C)C)cc1)NC(=O)CN1CCN(CC(=O)[O-])CCN(CC(=O)[O-])CCN(CC(=O)[O-])CC1)C(=O)O)C(=O)O)C(=O)O)C(=O)O.[177Lu+3] [[^177Lu]Lu-7, [^177Lu]Lu-Proinhibitor III]

[0.04, 0.02, 0.06, 0.06]

Bench note: what Biodistribution Parotid gland did CCCCCC[C@H](NC(=O)CC[C@H](NC(=O)N[C@@H](CCC(=O)N[C@H](CCCNC(=O)CCC(=O)NCCCC[C@@H](NC(=O)[C@@H](CNC(=O)c1ccc([Si](F)(C(C)(C)C)C(C)(C)C)cc1)NC(=O)CN1CCN(CC(=O)[O-])CCN(CC(=O)[O-])CCN(CC(=O)[O-])CC1)C(=O)O)C(=O)O)C(=O)O)C(=O)O)C(=O)O.[177Lu+3] [[^177Lu]Lu-6, [^177Lu]Lu-Proinhibitor II] show? 0.09

----------
Task for the reader: assign each of the following compounds its reported Biodistribution Blood.
# Tested on: LNCaP tumor xenograft-bearing CB17-SCID mice
# Assay Summary: Biodistribution in LNCaP tumor xenograft-bearing CB17-SCID mice
# Run Conditions: 24 h p.i.
Answers are plain numbers, in % ID/g.

Guide cases for Biodistribution Blood, answers given:
{"Compound": "CCCCCC[C@H](NC(=O)[C@H](CCC(=O)O)NC(=O)N[C@@H](CCC(=O)N[C@H](CCCNC(=O)CCC(=O)NCCCC[C@@H](NC(=O)[C@@H](CNC(=O)c1ccc([Si](F)(C(C)(C)C)C(C)(C)C)cc1)NC(=O)CN1CCN(CC(=O)[O-])CCN(CC(=O)[O-])CCN(CC(=O)[O-])CC1)C(=O)O)C(=O)O)C(=O)O)C(=O)O.[177Lu+3] [[^177Lu]Lu-7, [^177Lu]Lu-Proinhibitor III]", "Measurement Type": "Biodistribution Blood", "Unit Info": "% ID/g", "Quantitative Result": 0.01}
{"Compound": "CC(C)(C)[Si](F)(c1ccc(C(=O)NC[C@@H](NC(=O)CN2CCN(CC(=O)[O-])CCN(CC(=O)[O-])CCN(CC(=O)[O-])CC2)C(=O)N[C@H](CCCCNC(=O)CCC(=O)NCCC[C@@H](NC(=O)CC[C@H](NC(=O)O[C@@H](CCC(=O)O)C(=O)O)C(=O)O)C(=O)O)C(=O)O)cc1)C(C)(C)C.[177Lu+3] [[^177Lu]Lu-3, [^177Lu]Lu-Carbamate I]", "Measurement Type": "Biodistribution Blood", "Unit Info": "% ID/g", "Quantitative Result": 0.00}

Kindly consider the entry below.
Bench note: what Biodistribution Blood did CSCC[C@H](NC(=O)CC[C@H](NC(=O)N[C@@H](CCC(=O)N[C@H](CCCNC(=O)CCC(=O)NCCCC[C@@H](NC(=O)[C@@H](CNC(=O)c1ccc([Si](F)(C(C)(C)C)C(C)(C)C)cc1)NC(=O)CN1CCN(CC(=O)[O-])CCN(CC(=O)[O-])CCN(CC(=O)[O-])CC1)C(=O)O)C(=O)O)C(=O)O)C(=O)O)C(=O)O.[177Lu+3] [[^177Lu]Lu-5, [^177Lu]Lu-Proinhibitor I] show? 0.00

----------
# Assayed System: PSMA (Homo sapiens, UniProt Q04609)
# Sequence (Q04609 whole entry): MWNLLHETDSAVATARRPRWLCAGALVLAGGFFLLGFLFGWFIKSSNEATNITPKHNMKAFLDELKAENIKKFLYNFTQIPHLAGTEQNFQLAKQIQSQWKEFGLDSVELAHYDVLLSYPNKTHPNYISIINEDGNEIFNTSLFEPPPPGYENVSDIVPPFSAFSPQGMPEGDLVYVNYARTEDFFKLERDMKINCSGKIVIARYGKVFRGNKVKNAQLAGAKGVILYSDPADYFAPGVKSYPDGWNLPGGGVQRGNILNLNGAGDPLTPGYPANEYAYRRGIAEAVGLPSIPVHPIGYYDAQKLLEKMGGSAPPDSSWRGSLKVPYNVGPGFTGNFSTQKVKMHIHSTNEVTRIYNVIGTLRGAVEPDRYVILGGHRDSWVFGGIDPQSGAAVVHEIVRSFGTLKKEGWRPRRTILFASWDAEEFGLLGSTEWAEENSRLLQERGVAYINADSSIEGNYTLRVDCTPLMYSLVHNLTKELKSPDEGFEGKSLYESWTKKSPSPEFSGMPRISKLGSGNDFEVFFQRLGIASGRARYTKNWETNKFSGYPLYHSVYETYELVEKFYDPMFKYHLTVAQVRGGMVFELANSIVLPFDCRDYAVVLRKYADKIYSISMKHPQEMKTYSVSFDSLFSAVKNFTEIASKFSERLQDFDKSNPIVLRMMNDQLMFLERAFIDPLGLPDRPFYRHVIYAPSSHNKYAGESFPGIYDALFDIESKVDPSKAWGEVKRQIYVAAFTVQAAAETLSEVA
# Assay Summary: Affinity determinations (IC50), competitive binding assay with ([^125I]I-BA)KuE on LNCaP cells
# Run Conditions: ([^125I]I-BA)KuE 0.2 nM, HBSS (1% BSA), 4° C., 1 h, cold ^natGa/^natLu complex
Measurement Type: pIC50
Numbers only, as −log10 of the molar value.

{"Molecule": "CC(C)(C)[Si](F)(c1ccc(C(=O)NCC(NC(=O)CN2CCN(CC(=O)[O-])CCN(CC(=O)[O-])CCN(CC(=O)[O-])CC2)C(=O)NC(CCCCNC(=O)CCC(=O)NCCCC(NC(=O)CCC(NC(=O)NC(CCc2nnn[nH]2)C(=O)O)C(=O)O)C(=O)O)C(=O)O)cc1)C(C)(C)C.[Lu+3] (stereo not shown)", "Assayed System": "PSMA (Homo sapiens, UniProt Q04609)", "pIC50": 7.79}

Kindly consider the entry below.
Bench note: what pIC50 did CC(C)(C)[Si](F)(c1ccc(C(=O)NCC(NC(=O)CN2CCN(CC(=O)[O-])CCN(CC(=O)[O-])CCN(CC(=O)[O-])CC2)C(=O)NC(CCCCNC(=O)CCC(=O)NCCCC(NC(=O)CCC(NC(=O)NC(CCC(=O)O)C(=O)O)C(=O)O)C(=O)O)C(=O)O)cc1)C(C)(C)C.[Lu+3] (stereo not shown) [^natLu-1, ^natLu-PSMA-10, reference compound] show? 8.14

----------
# Test system: LNCaP tumor xenograft-bearing CB17-SCID mice
# Assay Summary: Biodistribution in LNCaP tumor xenograft-bearing CB17-SCID mice
# Run Conditions: 24 h p.i.
Task for the reader: assign each of the following compounds its reported Biodistribution Muscle.
Give bare numbers, in % ID/g.

Items follow; give Biodistribution Muscle for each.
1. CSCC[C@H](NC(=O)CC[C@H](NC(=O)N[C@@H](CCC(=O)N[C@H](CCCNC(=O)CCC(=O)NCCCC[C@@H](NC(=O)[C@@H](CNC(=O)c1ccc([Si](F)(C(C)(C)C)C(C)(C)C)cc1)NC(=O)CN1CCN(CC(=O)[O-])CCN(CC(=O)[O-])CCN(CC(=O)[O-])CC1)C(=O)O)C(=O)O)C(=O)O)C(=O)O)C(=O)O.[177Lu+3] [[^177Lu]Lu-5, [^177Lu]Lu-Proinhibitor I]
2. CCCCCC[C@H](NC(=O)[C@H](CCC(=O)O)NC(=O)N[C@@H](CCC(=O)N[C@H](CCCNC(=O)CCC(=O)NCCCC[C@@H](NC(=O)[C@@H](CNC(=O)c1ccc([Si](F)(C(C)(C)C)C(C)(C)C)cc1)NC(=O)CN1CCN(CC(=O)[O-])CCN(CC(=O)[O-])CCN(CC(=O)[O-])CC1)C(=O)O)C(=O)O)C(=O)O)C(=O)O.[177Lu+3] [[^177Lu]Lu-7, [^177Lu]Lu-Proinhibitor III]
3. CC(C)(C)[Si](F)(c1ccc(C(=O)NC[C@@H](NC(=O)CN2CCN(CC(=O)[O-])CCN(CC(=O)[O-])CCN(CC(=O)[O-])CC2)C(=O)N[C@H](CCCCNC(=O)CCC(=O)NCCC[C@@H](NC(=O)CC[C@H](NC(=O)O[C@@H](CCC(=O)O)C(=O)O)C(=O)O)C(=O)O)C(=O)O)cc1)C(C)(C)C.[177Lu+3] [[^177Lu]Lu-3, [^177Lu]Lu-Carbamate I]

0.00
0.01
0.01
